Target: T1, ECF30_35
T1 chain: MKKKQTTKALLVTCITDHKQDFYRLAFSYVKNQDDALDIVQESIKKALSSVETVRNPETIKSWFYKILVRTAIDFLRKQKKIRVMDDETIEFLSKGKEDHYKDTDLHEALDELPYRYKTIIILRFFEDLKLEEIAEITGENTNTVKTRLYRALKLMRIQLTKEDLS
Values of fold repression greater than or equal to 2 map to 1.0; values below map to 0.0.

// known answers, use as guide
| binder | class |
| --- | --- |
| AS02_915 (protein) MEKTGQEWVSASVDGETDRQTLAELAADTDSHAKWQRYHLMGDAMRDELPQAMPLDLSARIAAALEDEPTILAPKVEREATQAPSRAVVVPFMRQLGQYGIAAAVALMAVVGVQNYQSTQDDAPLPVLNTRPLVGTATPVSLQTGPVANQNQGNANDQLLEQRRRINAYLQDHMLQQRLNTGAVVDDNSEVTPIPVNR | 1.0 |
| AS22_4450 (protein) MELDDMKHAWQTLEQRLDQQAAQTGQLLGVVHEETVRSSLRPLWVAQTAQLLCALALAIVSARSWIPHTDQPVAVIGGVLLQAWCMALAISAMVQLQLLTQFNVAGPLLRTQHALARLRRWRTRVAPWLGVAFWVLWIAVADALWRALTGQTLPTDWLVLNLLVGVAGGIGTWLGFRRLQRAQHPWLERIDRAHAGTGVIRAERMLEEIARFQRD | 0.0 |
| AS37_2513 (protein) MSSAPATKEEVDFALKVRRALDERAASLPDATTDRLAAARRAALARKKPDAAIVLVPALAGSAGTLELRPPGEPRKSLARRLARAWPLALLLAGLIGIAYWEDMQRTAELADIDAAMLSDNLPLTAYLDHGFNAYLSHTH | 1.0 |
| AS01_3473 (protein) MSNYDNAELLALWLEGKLTPKQRDEFEQRCIQDSQFAEQVDAAAMVKIGADDYSSSEVPQWNKAATFEPQQANNSGSWLSGVSLVTSALAIVLVLTGTQVTTSEGELRIRFGSGQSEQALVKLVDSKLDAFKQNQQDAFTLYAQTLQQQQSESASQLTNYLLSSSRKERREDFAELIKFVNQQRSDDQLFYARQLNQLQQDVYHDATGVALESIQQ | 0.0 |
| AS03_1244 (protein) MKQFDPDVNIRPKEDSIRHYSVPDDYFASFTDKLMAQIPAVKEENTVVVPSVALWPKLRPLLYLAASFLLMIGMFKAFSLFGVGSDTGRTTSTSAGLVALDHGDTRWSEDTDYRDFLHDNCAETVSDEWVLTDFSE | 0.0 |

Asked: hey, is fold repression for this one >= 2? AS15_524 (protein) MNFGVEDMIEHVPMEDKRKGAAALDEARLRQQAIGVKLRQMFDEVVNEPVPDEFLAILRKAERPAGGE
Given back: 1.0

Asked: Again, but for AS15_436 (protein) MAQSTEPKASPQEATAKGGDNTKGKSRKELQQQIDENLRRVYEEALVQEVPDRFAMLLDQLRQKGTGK
Given back: 1.0
